src = patent US20260242735A1

Mean % WT Binding values for the binders below.
Target: human CD33 P145A (human, UniProt P20138 18-364)
Sequence (P20138 18-364 P145A limits assumed): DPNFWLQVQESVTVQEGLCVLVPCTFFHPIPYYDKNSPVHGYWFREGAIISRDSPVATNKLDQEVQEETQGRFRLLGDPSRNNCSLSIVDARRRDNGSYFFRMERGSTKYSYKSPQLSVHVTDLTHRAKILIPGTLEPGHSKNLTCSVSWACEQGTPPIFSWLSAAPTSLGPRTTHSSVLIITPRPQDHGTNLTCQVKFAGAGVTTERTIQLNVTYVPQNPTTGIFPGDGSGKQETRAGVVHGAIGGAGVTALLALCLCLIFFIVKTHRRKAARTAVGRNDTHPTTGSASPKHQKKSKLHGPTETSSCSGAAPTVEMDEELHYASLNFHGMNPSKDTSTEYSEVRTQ
Assay Name: flow cytometry on HEK293-T, alanine scan
I only need the number, in % WT binding, no unit after it.

{"columns": ["Binder", "Mean % WT Binding (% WT binding)"],
 "data": [
  ["Refmab #1 (antibody, V domains shown, The alanine scan used IgG or Fab; also called hP67.6) VH: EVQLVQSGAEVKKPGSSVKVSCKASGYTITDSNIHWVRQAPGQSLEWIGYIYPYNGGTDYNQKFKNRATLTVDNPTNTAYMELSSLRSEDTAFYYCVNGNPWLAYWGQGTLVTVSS VL: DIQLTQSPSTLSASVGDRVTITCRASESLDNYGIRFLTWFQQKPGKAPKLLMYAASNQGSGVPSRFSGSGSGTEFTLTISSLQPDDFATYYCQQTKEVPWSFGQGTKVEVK", 89.3],
  ["Refmab #3 (antibody, V domains shown, The alanine scan used IgG or Fab) VH: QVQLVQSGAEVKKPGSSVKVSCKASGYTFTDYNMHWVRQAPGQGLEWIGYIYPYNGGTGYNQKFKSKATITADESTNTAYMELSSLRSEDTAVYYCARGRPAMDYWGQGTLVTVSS VL: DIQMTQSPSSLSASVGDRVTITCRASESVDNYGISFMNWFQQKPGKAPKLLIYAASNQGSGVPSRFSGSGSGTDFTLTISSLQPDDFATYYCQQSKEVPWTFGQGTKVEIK", 75.2],
  ["Refmab #4 (antibody, V domains shown, The alanine scan used IgG or Fab) VH: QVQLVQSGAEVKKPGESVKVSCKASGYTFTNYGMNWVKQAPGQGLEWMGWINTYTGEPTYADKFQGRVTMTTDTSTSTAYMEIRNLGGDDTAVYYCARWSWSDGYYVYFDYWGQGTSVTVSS VL: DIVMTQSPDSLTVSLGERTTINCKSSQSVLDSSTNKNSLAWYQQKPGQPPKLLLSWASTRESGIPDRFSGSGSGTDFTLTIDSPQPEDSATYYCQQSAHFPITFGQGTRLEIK", 78.8]
]}

Look up Mean % WT Binding for this binder: Refmab #2 (antibody, V domains shown, The alanine scan used IgG or Fab) VH: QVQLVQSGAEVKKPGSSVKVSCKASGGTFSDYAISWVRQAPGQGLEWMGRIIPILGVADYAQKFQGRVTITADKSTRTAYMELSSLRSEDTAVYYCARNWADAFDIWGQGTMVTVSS VL: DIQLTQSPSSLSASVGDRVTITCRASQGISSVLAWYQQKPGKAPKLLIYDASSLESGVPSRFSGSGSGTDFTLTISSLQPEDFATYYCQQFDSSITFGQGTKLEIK 105
